Molecular target: T1, Caspase-1 (Homo sapiens, UniProt P29466)
T1 construct: purchased BioVision
T1 sequence (P29466 120-297 limits assumed): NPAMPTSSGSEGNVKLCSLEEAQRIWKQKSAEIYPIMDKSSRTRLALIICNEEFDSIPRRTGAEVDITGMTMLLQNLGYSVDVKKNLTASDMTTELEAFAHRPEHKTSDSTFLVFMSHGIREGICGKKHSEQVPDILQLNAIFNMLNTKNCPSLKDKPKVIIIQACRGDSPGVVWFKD
T1 sequence (P29466 317-404 limits assumed): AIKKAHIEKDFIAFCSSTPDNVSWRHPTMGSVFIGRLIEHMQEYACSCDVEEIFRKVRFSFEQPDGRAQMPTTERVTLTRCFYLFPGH
Assay: SEPARATE assay: human peptidome library digest with Caspase-1
Assay type: biochemical
Details: top 20 enriched peptides, human library (90-aa tiles); normalized read counts digest vs mock digest

Molecule	Caspase1 fold change
HUWE1 2251-2340: 90-aa human peptidome tile of HUWE1 displayed on T7 phage (protein, UniProt Q7Z6Z7 2251-2340, looked up, fragment, displayed on T7 phage) ETLSRIVNQPSSLFGSKSASSKNKSEQDAQGASQDSSSNQQDPGEPGEAEVQEEDHDVTQTEVADGDIMDGEAETDSVVIAGQPEVLSSQ	17.58 fold
HUWE1 2296-2485: 90-aa human peptidome tile of HUWE1 displayed on T7 phage; position as printed (protein, UniProt Q7Z6Z7 2296-2485, looked up, fragment, T7 phage display, position as printed) PGEAEVQEEDHDVTQTEVADGDIMDGEAETDSVVIAGQPEVLSSQEMQVENELEDLIDELLERDGGSGNSTIIVSRSGEDESQEDVLMDEAPSNLSQASTLQANREDSMNILDPEDEEEHTQEEDSSGSNEDEDDSQDEEEEEEEDEEDDQEDDEGEEGDEDDDDDGSEMELDEDYPDMNASPLVRFERF	22.71 fold
Efs 181-270: 90-aa human peptidome tile displayed on T7 phage (protein, UniProt O43281 181-270, looked up, fragment, displayed on T7 phage) PGEDDAPYDVPLTPKPPAELEPDLEWEGGREPGPPIYAAPSNLKRASALLNLYEAPEELLADGEGGGTDEGIYDVPLLGPEAPPSPEPPG	21.06 fold
HUWE1 2341-2430: 90-aa human peptidome tile of HUWE1 displayed on T7 phage (protein, UniProt Q7Z6Z7 2341-2430, looked up, fragment, displayed on T7 phage) EMQVENELEDLIDELLERDGGSGNSTIIVSRSGEDESQEDVLMDEAPSNLSQASTLQANREDSMNILDPEDEEEHTQEEDSSGSNEDEDD	16.55 fold
LYST 1171-1260: 90-aa human peptidome tile displayed on T7 phage (protein, UniProt Q99698 1171-1260, looked up, fragment, displayed on T7 phage) NYSADFEHNDAMTEKSHQSAEELSSQPGDFSEEAEDSQCCSFKLLVEEEGYEADSESNPEDGETQDDGVDLKSETEGFSASSSPNDLLEN	21.04 fold
TNS3 451-540: 90-aa human peptidome tile displayed on T7 phage (protein, UniProt Q68CZ2 451-540, looked up, fragment, displayed on T7 phage) YSGTRHVVPAQVHVNGDAALKDRETDILDDEMPHHDLHSVDSLGTLSSSEGPQSAHLGPFTCHKSSQNSLLSDGFGSNVGEDPQGTLVPD	18.67 fold
Znf462 1-90: 90-aa human peptidome tile displayed on T7 phage (protein, UniProt Q96JM2 1-90, looked up, fragment, displayed on T7 phage) MEVLQCDGCDFRAPSYEDLKAHIQDVHTAFLQPTDVAEDNVNELRCGSVNASNQTEVEFSSIKDEFAIAEDLSGQNATSLGTGGYYGHSP	19.1 fold
BSN 631-720: 90-aa human peptidome tile displayed on T7 phage (protein, UniProt Q9UPA5 631-720, looked up, fragment, displayed on T7 phage) ATPKVKSGVRRAEPATPVVKAVPEAPKGGEAEDLVGKPYSQDASRSPQSLSDTGYSSDGISSSQSEITGVVQQEVEQLDSAGVTGPHPPS	18.78 fold
MAP3K14 496-585: 90-aa human peptidome tile displayed on T7 phage (protein, UniProt Q99558 496-585, looked up, fragment, displayed on T7 phage) LGQALEGLEYLHSRRILHGDVKADNVLLSSDGSHAALCDFGHAVCLQPDGLGKSLLTGDYIPGTETHMAPEVVLGRSCDAKVDVWSSCCM	16.5 fold
UHRF1BP1L 991-1080: 90-aa human peptidome tile displayed on T7 phage (protein, UniProt A0JNW5 991-1080, looked up, fragment, displayed on T7 phage) EIGSETSDKKDSFYTDSSSILNYREDSNILSFDSDGNQNILSSTLTSKGNETIESIFKAEDLLPEAASLSENLDISKEETPPVRTLKSQS	16.39 fold
ZNF469 811-900: 90-aa human peptidome tile displayed on T7 phage (protein, UniProt Q96JG9 811-900, looked up, fragment, displayed on T7 phage) PLRTGFLPSLAATPFPLPASDLDMEDDAKLDSLITEALNGMEYQSDNPEIDSSFIDVFADEEPSGPRGPSSGHPLKSKAGVTPESKAPPP	16.76 fold

Hey, just so you know, these numbers are from patent US12091776B2.
